Provenance of the data: paper PMC10906223

- system: EphA4 receptor (Mus musculus, UniProt Q03137)
- Construct: purchased R&D Systems 641-A4-200
- Sequence (Q03137 with tags, fused parts or gaps limits assumed): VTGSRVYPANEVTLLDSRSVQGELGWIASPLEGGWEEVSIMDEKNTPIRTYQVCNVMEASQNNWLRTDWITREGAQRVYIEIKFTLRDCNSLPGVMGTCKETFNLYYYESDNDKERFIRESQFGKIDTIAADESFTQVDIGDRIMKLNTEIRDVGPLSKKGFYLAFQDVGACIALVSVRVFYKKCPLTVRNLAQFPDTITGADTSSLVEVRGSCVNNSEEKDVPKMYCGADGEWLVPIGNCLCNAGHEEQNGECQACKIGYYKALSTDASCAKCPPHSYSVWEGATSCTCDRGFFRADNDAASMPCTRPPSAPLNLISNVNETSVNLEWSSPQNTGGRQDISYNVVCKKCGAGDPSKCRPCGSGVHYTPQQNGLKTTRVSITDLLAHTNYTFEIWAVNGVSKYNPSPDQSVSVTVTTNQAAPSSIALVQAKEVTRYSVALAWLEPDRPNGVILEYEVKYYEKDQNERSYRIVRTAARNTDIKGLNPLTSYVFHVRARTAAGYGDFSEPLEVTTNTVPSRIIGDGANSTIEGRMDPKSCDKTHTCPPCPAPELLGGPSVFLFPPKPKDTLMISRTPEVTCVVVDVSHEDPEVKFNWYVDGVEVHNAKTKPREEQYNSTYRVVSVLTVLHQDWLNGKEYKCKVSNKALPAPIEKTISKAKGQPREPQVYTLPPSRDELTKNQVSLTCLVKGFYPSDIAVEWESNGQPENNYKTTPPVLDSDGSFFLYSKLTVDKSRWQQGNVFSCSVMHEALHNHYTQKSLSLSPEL
- procedure_text: ELISA: binding affinity (Ki) of WCDD301 for EphA4 via bound Ephrin-A5 Fc
- conditions_used: 8 nM Ephrin-A5; Figure 1C; read-out: Ki via Cheng-Prusoff equation
- Method: Wells of the protein A–coated microplate (Pierce, catalog 15132) were washed using 200 μL of binding buffer (PBS supplemented by 0.01% Tween 20). […] OD was read at 405 nm within 5 minutes using the microplate reader (Agilent BioTek Cytation 5). As a control, Fc fragment (BioLegend, catalog 790102) was incubated and used for normalization of data. […] Then, Ki was determined via an approach called finding Ki without global fitting ([58]) by using the following formula: […]
recorded_endpoint: pKi
Numbers only, as −log10 of the molar value.

Reported pKi for "CC(=O)OCC(N)(COC(C)=O)COC(C)=O" was 6.89

---

- procedure_text: Microsomal stability assay, human liver microsomes
- Type: in vitro ADME
- conditions_used: human, liver microsomes
recorded_endpoint: half-life at 1 µM (min)
Numbers only, in min.

Reported half-life at 1 µM for "O=C(O)Cc1ccccc1Nc1c(Cl)cccc1Cl" was 4.4

---

- procedure_text: Microsomal stability assay, human liver microsomes
- Type: in vitro ADME
- conditions_used: human, liver microsomes; read-out: Intrinsic microsomal clearance
recorded_endpoint: microsomal CLint at 1 µM

Reported microsomal CLint at 1 µM for "CC(=O)OCC(N)(COC(C)=O)COC(C)=O" was < 9.6 µL/min/mg

---

Can you tell me half-life at 2 µM for the items I'm about to list?
- procedure_text: Plasma stability assay, human plasma
- Format: in vitro ADME
- conditions_used: both sexes, human, plasma
One number for each entry, in h.

- compound: "CC(=O)OCC(N)(COC(C)=O)COC(C)=O [WCDD301]"
  output_unit: "h"
  half-life at 2 µM: 4.82

Note: attention shifts to another entry.
Reported half-life at 2 µM for CC(C)[N+](C)(CCOC(=O)C1c2ccccc2Oc2ccccc21)C(C)C [Propantheline, propantheline bromide] was 0.163
